Reported pEC50 by item:
system: CEM cells HIV-1 protection, formazan growth assay; experiment: NCI AIDS Antiviral Assay
pEC50: −log10 of the molar value.
RECORDED METRIC: pEC50

{"COMPOUND": "N=C1N(c2ccccc2)C(=O)C23CCCC2C13N1CCOCC1 (stereo unspecified)", "ASSAY TARGET": "CEM cells HIV-1 protection, formazan growth assay", "MEASURED RESULT": "< 3.66"}
{"COMPOUND": "Cc1cc(NS(=O)(=O)c2ccc(Nc3c4ccccc4nc4c(C(=O)N5CCN(CCO)CC5)ccc(Cl)c34)cc2)no1", "ASSAY TARGET": "CEM cells HIV-1 protection, formazan growth assay", "MEASURED RESULT": "< 4.32"}
{"COMPOUND": "O=C(CC1(O)C(=O)Nc2c(Cl)ccc(Cl)c21)c1ccc(Cl)cc1Cl (stereo unspecified)", "ASSAY TARGET": "CEM cells HIV-1 protection, formazan growth assay", "MEASURED RESULT": "< 4.89"}
{"COMPOUND": "O=C1CCCN(c2ccccc2)N1", "ASSAY TARGET": "CEM cells HIV-1 protection, formazan growth assay", "MEASURED RESULT": "< 2.85"}
{"COMPOUND": "CN1C(=O)C2(Nc3ccccc3N2)c2ccccc21", "ASSAY TARGET": "CEM cells HIV-1 protection, formazan growth assay", "MEASURED RESULT": "< 4.15"}
{"COMPOUND": "O=C1CC2(c3ccccc3)CCCCC2=NN1 (stereo unspecified)", "ASSAY TARGET": "CEM cells HIV-1 protection, formazan growth assay", "MEASURED RESULT": "< 3.70"}
{"COMPOUND": "COc1ccc(S(=O)(=O)Cc2ccc(C(=O)O)cc2[N+](=O)[O-])cc1", "ASSAY TARGET": "CEM cells HIV-1 protection, formazan growth assay", "MEASURED RESULT": "< 3.15"}
{"COMPOUND": "N#CC(C#N)=Cc1c(O)ccc2ccccc12", "ASSAY TARGET": "CEM cells HIV-1 protection, formazan growth assay", "MEASURED RESULT": "< 3.70"}
{"COMPOUND": "Cc1ccc(SCC(OCn2cnc3c(N)ncnc32)[C@H](C)F)cc1 (stereo partly specified)", "ASSAY TARGET": "CEM cells HIV-1 protection, formazan growth assay", "MEASURED RESULT": "< 3.70"}
{"COMPOUND": "CCCCSc1cc(Cc2cc(C)ccc2O)c(O)c(Cc2cc(C)ccc2O)c1", "ASSAY TARGET": "CEM cells HIV-1 protection, formazan growth assay", "MEASURED RESULT": "< 3.70"}
{"COMPOUND": "O=C1C/C(Br)=C\\c2ccccc2-c2ccccc21", "ASSAY TARGET": "CEM cells HIV-1 protection, formazan growth assay", "MEASURED RESULT": "< 5.95"}

====

Reported IC50 values for the following compounds.
system: CEM cells HIV-1 protection, formazan growth assay; test: NCI AIDS Antiviral Assay; conditions: measured here: growth of uninfected CEM cells
RECORDED METRIC: IC50

{"COMPOUND": "CN(C)/C=N\\c1ccnc(=O)[nH]1", "RECORDED METRIC": "IC50", "MEASURED RESULT": "> 1320 µM"}
{"COMPOUND": "CN(C)/C=N/NC(=O)C(O)(c1ccccc1)c1ccccc1", "RECORDED METRIC": "IC50", "MEASURED RESULT": "> 200 µM"}
{"COMPOUND": "Cc1ccc(S(=O)(=O)N/N=C(/c2ccccc2)c2ccsc2C)cc1", "RECORDED METRIC": "IC50", "MEASURED RESULT": "29.5 µM"}
{"COMPOUND": "COc1cc2c3c(c1)ncn3C(=O)CS2", "RECORDED METRIC": "IC50", "MEASURED RESULT": "> 100 µM"}
{"COMPOUND": "CCOC(=O)c1cc(/C=C/C(C)=C/C(=O)OC)oc1C", "RECORDED METRIC": "IC50", "MEASURED RESULT": "> 67.6 µM"}
{"COMPOUND": "CC(=O)[O-].Cc1ccnc(NS(=O)(=O)c2ccc(N=Cc3ccccc3[O-])cc2)n1.Cc1ccnc(NS(=O)(=O)c2ccc(N=Cc3ccccc3[O-])cc2)n1.[Cu+2]", "RECORDED METRIC": "IC50", "MEASURED RESULT": "5.62 µM"}
{"COMPOUND": "CC1OC(O[C@@H]2C=C3CC[C@@H]4[C@H](CC[C@]5(C)[C@@H](c6ccc(=O)oc6)CC[C@]45O)[C@@]3(C)CC2)C(O)C(O)C1O (stereo partly specified)", "RECORDED METRIC": "IC50", "MEASURED RESULT": "0.00468 µM"}
{"COMPOUND": "COC(=O)/C=C/c1ccc2c(c1)CC1(C2)Cc2cc3c(cc2C1=O)CCC3 (stereo unspecified)", "RECORDED METRIC": "IC50", "MEASURED RESULT": "> 100 µM"}
{"COMPOUND": "O=c1c2cc(Cl)ccc2sc2cccc(Cl)c12", "RECORDED METRIC": "IC50", "MEASURED RESULT": "> 1.35 µM"}
{"COMPOUND": "O=c1[nH]nc(Nc2ccc(Cl)cc2)c2nnn(-c3ccc([N+](=O)[O-])cc3)c12", "RECORDED METRIC": "IC50", "MEASURED RESULT": "67.6 µM"}
{"COMPOUND": "Cc1c(C)n(-c2ccccc2)c2nc(S(C)=O)nc(S(C)=O)c12 (stereo unspecified)", "RECORDED METRIC": "IC50", "MEASURED RESULT": "1.35 µM"}
{"COMPOUND": "O=C(O)C1C=CC(c2ccc(Cl)cc2)=N1 (stereo unspecified)", "RECORDED METRIC": "IC50", "MEASURED RESULT": "> 200 µM"}
{"COMPOUND": "CN(C)P(CCP(C)C)N(C)C", "RECORDED METRIC": "IC50", "MEASURED RESULT": "> 174 µM"}
{"COMPOUND": "CN(C)CCn1c2c3ccccc3ccc2c2oc(=O)c3ccccc3c21", "RECORDED METRIC": "IC50", "MEASURED RESULT": "8.51 µM"}
{"COMPOUND": "CCOC(=O)C1=C(C)N(C2OC(COC(=O)c3ccccc3)C(OC(=O)c3ccccc3)C2OC(=O)c2ccccc2)C(=S)NC1c1ccccc1 (stereo unspecified)", "RECORDED METRIC": "IC50", "MEASURED RESULT": "> 50.1 µM"}
{"COMPOUND": "Nc1ncnc2c1ncc(=O)n2C1CC(O)C(CO)O1 (stereo unspecified)", "RECORDED METRIC": "IC50", "MEASURED RESULT": "> 200 µM"}
{"COMPOUND": "COC(=O)[C@@H](N1C(=O)c2ccccc2C1=O)C1(C)CC(Cl)=NO1 (stereo partly specified)", "RECORDED METRIC": "IC50", "MEASURED RESULT": "> 200 µM"}
{"COMPOUND": "C[Si]1(C)[Si](C)(C)[Si](C)(C)[Si](C)(C)[Si](C)(C)[Si]1(C)C", "RECORDED METRIC": "IC50", "MEASURED RESULT": "> 28.8 µM"}
{"COMPOUND": "c1cncc(C2c3[nH]c4ccccc4c3CCN2CCCN2CCCCC2)c1 (stereo unspecified)", "RECORDED METRIC": "IC50", "MEASURED RESULT": "> 3.89 µM"}
{"COMPOUND": "C=CCc1cc(OC)c2c(c1)C(O)CC(c1ccccc1)O2 (stereo unspecified)", "RECORDED METRIC": "IC50", "MEASURED RESULT": "> 170 µM"}
{"COMPOUND": "CCCCCCCCCCCCCCCC(=O)Nc1ccn(C2CSC(COP(=O)(O)OC3CC(n4ccc(NC(=O)CCCCCCCCCCCCCCC)nc4=O)OC3CO)O2)c(=O)n1 (stereo unspecified)", "RECORDED METRIC": "IC50", "MEASURED RESULT": "> 200 µM"}
{"COMPOUND": "CC1(C)C(C#N)C(=O)N=C(N)C1C(N)=O (stereo unspecified)", "RECORDED METRIC": "IC50", "MEASURED RESULT": "> 200 µM"}
{"COMPOUND": "CCCCCCCCCCCCCCCC(=O)Nc1ccn(C2CC(OP(=O)(O)OCC3OC(n4cc(C)c(=O)[nH]c4=O)CC3N=[N+]=[N-])C(CO)O2)c(=O)n1 (stereo unspecified)", "RECORDED METRIC": "IC50", "MEASURED RESULT": "> 100 µM"}
{"COMPOUND": "O=C(NNc1ccccc1)/C(=C/c1ccc2c(c1)OCO2)NC(=O)c1ccccc1", "RECORDED METRIC": "IC50", "MEASURED RESULT": "> 12.9 µM"}
{"COMPOUND": "COC(=O)c1cc(C(c2cc(C(=O)OC)c(OC)c(Br)c2C)C(Cl)(Cl)Cl)c(C)c(Br)c1OC", "RECORDED METRIC": "IC50", "MEASURED RESULT": "25.7 µM"}
{"COMPOUND": "N[C@@H](CCC(=O)NCP(=O)(O)O)C(=O)O", "RECORDED METRIC": "IC50", "MEASURED RESULT": "> 200 µM"}
{"COMPOUND": "CC1=C(C(=O)NNC(=O)c2ccccc2)CC(C(=O)NNC(=O)c2ccccc2)=C(C)N1", "RECORDED METRIC": "IC50", "MEASURED RESULT": "> 200 µM"}
{"COMPOUND": "CC(CCCC1SCC2NC(=O)NC21)C(=O)O (stereo unspecified)", "RECORDED METRIC": "IC50", "MEASURED RESULT": "> 977 µM"}
{"COMPOUND": "COC(=O)c1ccccc1C1CN=NC12Cc1ccccc1C2=O (stereo unspecified)", "RECORDED METRIC": "IC50", "MEASURED RESULT": "120 µM"}
{"COMPOUND": "COc1ccc2nc3c([N+](=O)[O-])ccc(NCCCN(C)C)c3c(NCCCN(C)C)c2c1", "RECORDED METRIC": "IC50", "MEASURED RESULT": "0.229 µM"}
{"COMPOUND": "O=C(O)C1[C@@H](C(=O)O)C1(Br)CBr (stereo partly specified)", "RECORDED METRIC": "IC50", "MEASURED RESULT": "> 200 µM"}
{"COMPOUND": "CN(C)C1=NC(=O)C(c2ccccc2)O1 (stereo unspecified)", "RECORDED METRIC": "IC50", "MEASURED RESULT": "> 200 µM"}
{"COMPOUND": "CCOP(C)(=O)/C(Cc1ccc(OC)c(OC)c1)=N\\O (stereo unspecified)", "RECORDED METRIC": "IC50", "MEASURED RESULT": "> 200 µM"}
{"COMPOUND": "Cc1c(O)c(OC2OC(CO)C(O)C(O)C2O)cc2c1CC[C@@H]1C2(C)C(=O)C[C@]2(C)[C@@H]([C@@](C)(O)C3CCC(C)(C)O3)[C@H](O)C[C@@]12C (stereo partly specified)", "RECORDED METRIC": "IC50", "MEASURED RESULT": "> 200 µM"}
{"COMPOUND": "O=[N+]([O-])c1cccc2nc3ccccc3c(NCCCCNc3c4ccccc4nc4cccc([N+](=O)[O-])c34)c12", "RECORDED METRIC": "IC50", "MEASURED RESULT": "0.0162 µM"}
{"COMPOUND": "O=C1C[C@@H](c2ccccc2)O[C@@H](c2ccccc2)C1", "RECORDED METRIC": "IC50", "MEASURED RESULT": "112 µM"}
{"COMPOUND": "CCO[C@@H]1N(C2CC(N=[N+]=[N-])C(CO)O2)C(=O)NC(=O)[C@]1(C)Cl (stereo partly specified)", "RECORDED METRIC": "IC50", "MEASURED RESULT": "> 200 µM"}
{"COMPOUND": "CCOC(=O)C(N)CSSCC(N)C(=O)OCC (stereo unspecified)", "RECORDED METRIC": "IC50", "MEASURED RESULT": "> 200 µM"}
{"COMPOUND": "CC(C)(CC1=CC(=O)C=CC1=O)Cc1ccccc1", "RECORDED METRIC": "IC50", "MEASURED RESULT": "37.2 µM"}
{"COMPOUND": "Cc1nc2c(=O)n(C)ncc2[nH]1", "RECORDED METRIC": "IC50", "MEASURED RESULT": "> 200 µM"}
{"COMPOUND": "CCCCC(C)CCCC1=C(O)C(CC(=O)O)OC1=O (stereo unspecified)", "RECORDED METRIC": "IC50", "MEASURED RESULT": "> 87.1 µM"}
